- Tested on: HL-60
- TEST_NAME: Cell cycle arrest in human HL60 cells assessed as accumulation at S phase at 1 uM after 24 hrs using propidium iodide staining by flow cytometry
- Type: functional, cell-based
Active and inactive are the calls of the source. The calls are words filed in the database; no cut-off is given here.
MEASURED_PARAMETER: Activity

Worked examples follow.
>  <CHEMICAL_STRING>
O=C(Nc1nc2ccc([N+](=O)[O-])cc2s1)c1cccnc1Nc1ccccc1

>  <MEAS_VALUE>
inactive

$$$$
>  <CHEMICAL_STRING>
O=C(Nc1nc2ccc([N+](=O)[O-])cc2s1)c1cccnc1Nc1ccc(Cl)cc1Cl

>  <MEAS_VALUE>
inactive

$$$$
>  <CHEMICAL_STRING>
CN1c2ccccc2S(=O)(=O)n2nc(-c3cccnc3Nc3ccc(Cl)cc3Cl)nc21

>  <MEAS_VALUE>
inactive

$$$$
>  <CHEMICAL_STRING>
O=C(Nc1nc2ccc([N+](=O)[O-])cc2s1)c1cccnc1Nc1ccc(F)cc1

>  <MEAS_VALUE>
inactive

$$$$
>  <CHEMICAL_STRING>
COc1ccc(Nc2ncccc2C(=O)Nc2nc3ccc([N+](=O)[O-])cc3s2)cc1

>  <MEAS_VALUE>
inactive

$$$$

Would you kindly look at the next entry?
Report measured Activity; entry is O=C(Nc1nc2ccc([N+](=O)[O-])cc2s1)c1cccnc1Nc1cc(F)c(F)c(F)c1
inactive

----------
- System: HL-60
- TEST_NAME: Induction of apoptosis in human HL60 cells assessed as decrease in mitochondrial membrane potential at 1 uM after 24 hrs using rhodamine 123 staining by flow cytometry
- Format: functional
Activity calls are given as the source filed them. The calls are words filed in the database; no cut-off is given here.

>  <CHEMICAL_STRING>
O=C(Nc1nc2ccc([N+](=O)[O-])cc2s1)c1cccnc1Nc1ccc(Cl)cc1Cl

>  <EXPERIMENTAL_SYSTEM>
HL-60

>  <Activity>
Active

$$$$
>  <CHEMICAL_STRING>
O=C(Nc1nc2ccc([N+](=O)[O-])cc2s1)c1cccnc1Nc1ccccc1

>  <EXPERIMENTAL_SYSTEM>
HL-60

>  <Activity>
Active

$$$$
>  <CHEMICAL_STRING>
O=C(Nc1nc2ccc([N+](=O)[O-])cc2s1)c1cccnc1Nc1cc(F)c(F)c(F)c1

>  <EXPERIMENTAL_SYSTEM>
HL-60

>  <Activity>
45%

$$$$
>  <CHEMICAL_STRING>
O=C(Nc1nc2ccc([N+](=O)[O-])cc2s1)c1cccnc1Nc1ccc(F)cc1

>  <EXPERIMENTAL_SYSTEM>
HL-60

>  <Activity>
Active

$$$$

----------
- TEST_NAME: Growth inhibition of human 502713 cells at 10 uM by sulforhodamine B assay
- Format: functional
- RECORDED_CONDITIONS: read-out: GI
Please go through the items and note down their inhibition of growth at 10 µM.
Answer in %, number only, no unit symbol.

Determine its reported inhibition of growth at 10 µM: O=C(Nc1nc2ccc([N+](=O)[O-])cc2s1)c1cccnc1Nc1ccc(F)c(Cl)c1
28

Report inhibition of growth at 10 µM, nothing else, for this molecule: COc1ccc2nc(NC(=O)c3cccnc3Nc3ccc(Cl)cc3Cl)sc2c1
4

Let me know recorded inhibition of growth at 10 µM for CN1c2ccccc2S(=O)(=O)n2nc(-c3cccnc3Nc3cc(F)c(F)c(F)c3)nc21 , thanks.
26

Identify the reported inhibition of growth at 10 µM for the following entry. COc1ccc(Nc2ncccc2C(=O)Nc2nc3ccc(OC)cc3s2)cc1
21

Hello, please tell me recorded inhibition of growth at 10 µM for this one: COc1ccc(Nc2ncccc2C(=O)Nc2nc3ccc([N+](=O)[O-])cc3s2)cc1
59

Given the molecule O=S1(=O)c2ccccc2N(c2ccccc2)c2nc(-c3cccnc3Nc3ccccc3)nn21 , write its reported inhibition of growth at 10 µM.
21

Determine from records and report inhibition of growth at 10 µM for CN1c2ccccc2S(=O)(=O)n2nc(-c3cccnc3Nc3ccc(Cl)cc3)nc21
28

----------
- TEST_NAME: Therapeutic ratio of IC50 for african green monkey CV1 cells to IC50 for human HL60 cells
- Type: ADME, cell-based, HL-60
- RECORDED_CONDITIONS: CV1 cells and HL60 cells, read-out: Ratio IC50
I'd appreciate it if you could supply selectivity ratio values for the items below.
Lab note: jot down the number only; don't add units.

Indicate the recorded selectivity ratio value for this compound: O=C(Nc1nc2ccc([N+](=O)[O-])cc2s1)c1cccnc1Nc1ccccc1
120

Provide selectivity ratio value for the following compound: COc1ccc(Nc2ncccc2C(=O)Nc2nc3ccc([N+](=O)[O-])cc3s2)cc1
14

Output selectivity ratio of O=C(Nc1nc2ccc([N+](=O)[O-])cc2s1)c1cccnc1Nc1ccc(Cl)cc1
2

Return selectivity ratio (reported value) for this compound: O=C(Nc1nc2ccc([N+](=O)[O-])cc2s1)c1cccnc1Nc1ccc(F)cc1
50

----------
- TEST_NAME: Growth inhibition of human 502713 cells at 10 uM by sulforhodamine B assay
- Type: functional
- RECORDED_CONDITIONS: read-out: GI
Parameter class (string): assigned from measured inhibition of growth at 10 µM. Ranges: bottom bin = under 10%, middle bin = from 10% up to 50%, top bin = 50% and over

Which class is correct for the following molecule? COc1ccc2nc(NC(=O)c3cccnc3Nc3ccccc3)sc2c1
middle bin

Hello team, could you let me know which band the following molecule falls into: O=C(Nc1nc2ccc([N+](=O)[O-])cc2s1)c1cccnc1Nc1ccc(Cl)cc1
top bin

Hey, which category is O=S1(=O)c2ccccc2N(c2ccccc2)c2nc(-c3cccnc3Nc3ccc(Cl)cc3)nn21 in, do you know?
middle bin

Given O=S1(=O)c2ccccc2N(c2ccccc2)c2nc(-c3cccnc3Nc3ccc(Cl)cc3Cl)nn21 , name the class its inhibition of growth at 10 µM places it in.
middle bin

Band for O=S1(=O)c2ccccc2N(c2ccccc2)c2nc(-c3cccnc3Nc3cc(F)c(F)c(F)c3)nn21 ?
middle bin

Category lookup for the molecule CC(=O)O[C@H]1C(=O)[C@@]2(C)[C@H]([C@H](OC(=O)c3ccccc3)[C@]3(O)C[C@H](OC(=O)[C@H](O)[C@@H](NC(=O)c4ccccc4)c4ccccc4)C(C)=C1C3(C)C)[C@]1(OC(C)=O)CO[C@@H]1C[C@@H]2O
top bin

Class for O=C(Nc1nc2ccc([N+](=O)[O-])cc2s1)c1cccnc1Nc1cc(F)c(F)c(F)c1 ?
top bin

Form field 'band' for COc1ccc(Nc2ncccc2-c2nc3n(n2)S(=O)(=O)c2ccccc2N3C)cc1
middle bin

Would you mind sorting CN1c2ccccc2S(=O)(=O)n2nc(-c3cccnc3Nc3ccccc3)nc21 into the appropriate category?
middle bin

Which bin, given its inhibition of growth at 10 µM, does COc1ccc(Nc2ncccc2-c2nc3n(n2)S(=O)(=O)c2ccccc2N3c2ccccc2)cc1 occupy?
bottom bin

Category of O=c1[nH]cc(F)c(=O)[nH]1 :
middle bin

For O=C(Nc1nc2ccc([N+](=O)[O-])cc2s1)c1cccnc1Nc1ccccc1 , which inhibition of growth at 10 µM bin applies?
top bin

Lab note: which band did O=C(Nc1nc2ccc([N+](=O)[O-])cc2s1)c1cccnc1Nc1ccc(F)cc1 land in?
top bin

Record COc1ccc2nc(NC(=O)c3cccnc3Nc3ccc(F)cc3)sc2c1 — which class?
bottom bin

// return the class label for O=C(Nc1nc2ccc([N+](=O)[O-])cc2s1)c1cccnc1Nc1ccc(Cl)cc1Cl
bottom bin

Which of the defined bands does the recorded inhibition of growth at 10 µM of COc1ccc2nc(NC(=O)c3cccnc3Nc3cc(F)c(F)c(F)c3)sc2c1 sit within?
middle bin

----------
Field: inhibition of growth at 10 µM. Provide a value for each of the compounds that follow.
- Tested on: OVCAR-5
- TEST_NAME: Growth inhibition of human OVCAR5 cells at 10 uM by sulforhodamine B assay
- Format: functional
- RECORDED_CONDITIONS: read-out: GI
Give your result in % as a bare value.

Kindly indicate its recorded inhibition of growth at 10 µM. Item: O=S1(=O)c2ccccc2N(c2ccccc2)c2nc(-c3cccnc3Nc3cc(F)c(F)c(F)c3)nn21
2

Dear colleague, please send me the reported inhibition of growth at 10 µM for O=c1[nH]cc(F)c(=O)[nH]1 when you can.
22

Could you please provide reported inhibition of growth at 10 µM for COc1ccc2nc(NC(=O)c3cccnc3Nc3ccccc3)sc2c1 ? Thanks!
6

Could you please provide reported inhibition of growth at 10 µM for COc1ccc(Nc2ncccc2-c2nc3n(n2)S(=O)(=O)c2ccccc2N3c2ccccc2)cc1 ? Thanks!
2

Item O=C(Nc1nc2ccc([N+](=O)[O-])cc2s1)c1cccnc1Nc1ccc(F)cc1 : provide inhibition of growth at 10 µM
53

Note inhibition of growth at 10 µM for the compound shown: COc1ccc(Nc2ncccc2C(=O)Nc2nc3ccc(OC)cc3s2)cc1
8

Please indicate inhibition of growth at 10 µM recorded for O=C(Nc1nc2ccc([N+](=O)[O-])cc2s1)c1cccnc1Nc1ccc(Cl)cc1Cl
0

Item CN1c2ccccc2S(=O)(=O)n2nc(-c3cccnc3Nc3cc(F)c(F)c(F)c3)nc21 : provide inhibition of growth at 10 µM
8

Return reported inhibition of growth at 10 µM. Input compound: COc1ccc2nc(NC(=O)c3cccnc3Nc3cc(F)c(F)c(F)c3)sc2c1
25

Tell me measured inhibition of growth at 10 µM for O=C(Nc1nc2ccc([N+](=O)[O-])cc2s1)c1cccnc1Nc1ccc(F)c(Cl)c1 please.
3

Give the reported value of inhibition of growth at 10 µM for this record: CN1c2ccccc2S(=O)(=O)n2nc(-c3cccnc3Nc3ccc(Cl)cc3Cl)nc21
23

// fetch inhibition of growth at 10 µM given entry CN1c2ccccc2S(=O)(=O)n2nc(-c3cccnc3Nc3ccc(Cl)cc3)nc21
10
